Biological target: AVP-V2 sites (Rattus norvegicus, UniProt Q00788)
Construct: male rat liver (AVP-V1 sites) or kidney medulla (AVP-V2 sites); from tissue; host or cells: male rat kidney medulla, crude membranes
Sequence (Q00788 whole entry): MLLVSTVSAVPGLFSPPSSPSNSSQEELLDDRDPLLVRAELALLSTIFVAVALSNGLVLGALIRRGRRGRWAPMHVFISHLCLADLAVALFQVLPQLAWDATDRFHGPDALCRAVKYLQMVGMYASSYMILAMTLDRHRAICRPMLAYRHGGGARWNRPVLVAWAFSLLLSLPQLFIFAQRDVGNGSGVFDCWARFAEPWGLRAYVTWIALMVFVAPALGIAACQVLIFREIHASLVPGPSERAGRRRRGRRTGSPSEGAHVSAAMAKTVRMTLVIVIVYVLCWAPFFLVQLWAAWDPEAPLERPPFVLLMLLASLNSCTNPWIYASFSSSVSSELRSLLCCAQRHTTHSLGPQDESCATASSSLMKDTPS
Test: [^3 H]AVP binding to crude membrane preparation of male rat kidney medulla (AVP-V2 sites)
Settings: Receptor Binding Results IC50 (nM) [^3 H]-AVP-V2
Numbered stars: 1 amine (or outer) side, 2 acyl side, 3 side chain; on linkers, the order of the positions; unused ones are H or OH. Square brackets hold non-standard residues; d marks the D form. Peptide text beside a SMILES is read from it. dPip(4-aza,4-Cbz) = O=C(O)[C@H]1CN(C(=O)OCc2ccccc2)CCN1; X2 = O=C(OCc1ccccc1)N1CCN([*:1])[C@H](C(=O)[*:2])C1; d2Nal = N[C@H](Cc1ccc2ccccc2c1)C(=O)O; Pip(4-aza) = O=C(O)[C@@H]1CNCCN1; dNMeF = CN[C@H](Cc1ccccc1)C(=O)O; dOrn = NCCC[C@@H](N)C(=O)O; Pip = O=C(O)[C@@H]1CCCCN1; dPip = O=C(O)[C@H]1CCCCN1
readoutKind: IC50

// below: answered compounds
compound	IC50
CC[C@H](C)[C@@H]1NC(=O)[C@@H](Cc2c[nH]c3ccccc23)NC(=O)[C@@H]2CCCN2C(=O)[C@@H](Cc2ccccc2)N(C)C(=O)[C@H]2CN(C(=O)OCc3ccccc3)CCN2C(=O)[C@H]2CCCCN2C1=O [Example 91] (cyclo(I[dPip][dPip(4-aza,4-Cbz)][dNMeF]P[dW]))	> 1000 nM
CC[C@H](C)[C@@H]1NC(=O)[C@@H](Cc2ccccc2)NC(=O)[C@@H]2CCCN2C(=O)[C@@H](Cc2ccccc2)N(C)C(=O)[C@H](Cc2cnc[nH]2)NC(=O)[C@H]2CCCCN2C1=O [Example 13] (cyclo(H[dNMeF]P[dF]I[dPip]))	> 1000 nM
CC[C@H](C)[C@@H]1NC(=O)[C@@H](Cc2ccccc2)NC(=O)[C@@H]2CCCN2C(=O)[C@@H](Cc2c[nH]cn2)NC(=O)[C@@H]2CN(C(=O)OCc3ccccc3)CCN2C(=O)[C@H]2CCCCN2C1=O [Example 81] (cyclo(I[dPip][X2][dH]P[dF]))	> 1000 nM
CC[C@H](C)[C@@H]1NC(=O)[C@@H](Cc2ccc3ccccc3c2)NC(=O)[C@@H]2CCCN2C(=O)[C@@H](Cc2c[nH]cn2)NC(=O)[C@@H]2CCCCN2C(=O)[C@H]2CCCCN2C1=O [Example 12] (cyclo(I[dPip][Pip][dH]P[d2Nal]))	> 1000 nM
CC[C@H](C)[C@@H]1NC(=O)[C@@H](Cc2c[nH]c3ccccc23)NC(=O)[C@@H]2CCCN2C(=O)[C@@H](Cc2ccccc2)NC(=O)[C@@H]2CNCCN2C(=O)[C@H]2CCCCN2C1=O [Example 87] (cyclo(I[dPip][Pip(4-aza)][dF]P[dW]))	> 1000 nM

Task item: Please give the measured IC50 for this compound: CN1C(=O)[C@@H]2CCCCN2C(=O)[C@H]2CCCCN2C(=O)[C@H](Cc2ccccc2)NC(=O)[C@@H](Cc2c[nH]c3ccccc23)NC(=O)[C@@H]2CCCN2C(=O)[C@H]1Cc1ccccc1 [Example 31] (cyclo(F[dPip][Pip][dNMeF]P[dW]))
Reply: > 1000 nM

Task item: Would you kindly repeat that for CC(C)C[C@@H]1NC(=O)[C@@H](Cc2c[nH]c3ccccc23)NC(=O)[C@@H]2CCCN2C(=O)[C@@H](Cc2c[nH]cn2)NC(=O)[C@@H]2CCCCN2C(=O)[C@H]2CCCCN2C1=O [Example 21] (cyclo(L[dPip][Pip][dH]P[dW])) ?
Reply: > 10000 nM

Task item: Would you kindly repeat that for CC[C@H](C)[C@@H]1NC(=O)[C@@H](Cc2ccccc2)NC(=O)[C@@H]2CCCN2C(=O)[C@@H](CCCN)NC(=O)[C@@H]2CCCCN2C(=O)[C@H]2CCCCN2C1=O [Example 39] (cyclo(I[dPip][Pip][dOrn]P[dF])) ?
Reply: > 10000 nM

Source of measurements: patent US5225528A
